# Lookup of reported pIC50 keyed by entry
# Tested on: SK-OV-3 ovarian cancer cell line
# ASSAY OVERVIEW: Cell growth inhibition, WST-8 assay, SK-OV-3
# Type: cell-based
# EXPERIMENTAL PARAMETERS: Homo sapiens, SK-OV-3, 96 h, 4 days, WST-8; read-out: SK-OV-3 IC50
pIC50: −log10 of the molar value.

See these solved cases before continuing.
STRUCTURE AS SMILES | pIC50
CN[C@@H](C)C(=O)N[C@H]1CN(C(=O)Cc2ccccc2)CC[C@H]2CC[C@@H](C(=O)NCc3ccc(F)cc3)N2C1=O | > 6.00
CN[C@@H](C)C(=O)N[C@H]1CN(C(=O)CC(C)C)CC[C@H]2CC[C@@H](C(=O)NCc3ccc(C(F)(F)F)cc3)N2C1=O | > 5.00
CN[C@@H](C)C(=O)N[C@H]1CN(C(=O)C(C)C)CC[C@H]2CC[C@@H](C(=O)NC(c3ccc(F)cc3)c3ccc(F)cc3)N2C1=O | > 5.00
CN[C@@H](C)C(=O)N[C@H]1CN(C(=O)CC(C)C)CC[C@H]2CC[C@@H](C(=O)NCc3cccc(-c4ccccc4)c3)N2C1=O | > 5.00
CN[C@@H](C)C(=O)N[C@H]1CN(C(=O)CCn2ccnc2)CC[C@H]2CC[C@@H](C(=O)NC(c3ccccc3)c3ccccc3)N2C1=O | > 4.00

Q: Could you tell me which pIC50 is on file for `CN[C@@H](C)C(=O)N[C@H]1CN(C(=O)CCCC(C)C)CC[C@H]2CC[C@@H](C(=O)NC(c3ccccc3)c3ccccc3)N2C1=O` ?
A: > 6.00
